study_system: Neuropeptide Y receptor type 1 (Homo sapiens, UniProt P25929); note: assay procedure not described here
Sequence (P25929 whole entry): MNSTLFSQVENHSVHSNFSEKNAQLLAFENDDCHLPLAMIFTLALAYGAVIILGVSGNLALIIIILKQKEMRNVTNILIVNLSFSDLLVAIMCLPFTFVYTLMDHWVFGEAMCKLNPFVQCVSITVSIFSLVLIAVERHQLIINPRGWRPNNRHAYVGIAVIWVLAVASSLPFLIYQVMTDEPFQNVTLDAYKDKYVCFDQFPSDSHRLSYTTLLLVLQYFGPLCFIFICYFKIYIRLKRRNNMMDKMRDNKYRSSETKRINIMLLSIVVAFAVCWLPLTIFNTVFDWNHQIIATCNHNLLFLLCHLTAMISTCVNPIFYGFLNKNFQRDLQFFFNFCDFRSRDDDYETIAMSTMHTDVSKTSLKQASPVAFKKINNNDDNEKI
Please go through the items and note down their AC50.

Worked set:
CNC(=O)c1cc(Oc2ccc(NC(=O)Nc3ccc(Cl)c(C(F)(F)F)c3)cc2)ccn1 [SORAFENIB]; > 30 µM
C[N+](C)(C)CC(=O)O [BETAINE]; > 30 µM
CN1C(=O)CC(c2ccccc2)C1=O (configuration not stated) [PHENSUXIMIDE]; > 10 µM

Dear reader, for each entry below, please note its AC50.
1. N[C@@H](C(=O)N[C@@H]1C(=O)N2C(C(=O)O)=C(Cl)CS[C@H]12)c1ccccc1 [CEFACLOR ANHYDROUS]
2. CC(=O)OCC(=O)[C@@]12OC3(CCCC3)O[C@@H]1C[C@H]1[C@@H]3CCC4=CC(=O)C=C[C@]4(C)[C@@]3(F)[C@@H](O)C[C@@]12C [AMCINONIDE]
3. O=C(C[S+]([O-])C(c1ccccc1)c1ccccc1)NO (configuration not stated)
4. Nc1ncnc2c1ncn2[C@@H]1O[C@H](COP(=O)(O)O)[C@@H](O)[C@H]1O [ADENOSINE PHOSPHATE]

1: > 30 µM; 2: > 10 µM; 3: > 30 µM; 4: > 30 µM

Dear reader, for each entry below, please note its AC50.
1. CN1CCC2=C(C1)C(c1ccccc1)c1ccccc12 (configuration not stated) [PHENINDAMINE]
2. COC(=O)N[C@H](C(=O)N1CCC[C@H]1c1nc(-c2ccc(-c3ccc(-c4c[nH]c([C@@H]5CCCN5C(=O)[C@@H](NC(=O)OC)C(C)C)n4)cc3)cc2)c[nH]1)C(C)C
3. CO/N=C(\C(=O)N[C@@H]1C(=O)N2C(C(=O)[O-])=C(C[N+]3(C)CCCC3)CS[C@H]12)c1csc(N)n1
4. C[C@H]1C[C@@H]2[C@H]([C@@H](O)C[C@@]3(C)[C@H]2CC[C@]3(O)C(=O)COC(=O)CCC(=O)O)[C@@]2(C)C=CC(=O)C=C12 [METHYLPREDNISOLONE HEMISUCCINATE]
5. Nc1nc(N)c2nc(-c3ccccc3)c(N)nc2n1
6. NC1=NC(=O)C(c2ccccc2)O1 (configuration not stated) [PEMOLINE]
7. CCc1ccc(CCOc2ccc(CC3SC(=O)NC3=O)cc2)nc1 (configuration not stated) [PIOGLITAZONE]
8. CCC1(C2=CCCCCC2)C(=O)NC(=O)NC1=O [HEPTABARBITAL]

> 10 µM
> 30 µM
> 30 µM
> 30 µM
> 30 µM
> 30 µM
> 30 µM
> 10 µM

Dear reader, for each entry below, please note its AC50.
1. CC(C(=O)O)c1ccc(N2CC=CC2)c(Cl)c1 (configuration not stated) [PIRPROFEN]
2. O=C(O)CCCc1ccccc1 [PHENYLBUTANOIC ACID]

1. > 30 µM
2. > 10 µM

* * *

Please consider the recorded AC50 for Mu-type opioid receptor (Homo sapiens) in what follows.

COC(=O)C1=C(C)NC(C)=C(C(=O)OC)C1c1ccccc1[N+](=O)[O-]; 11 µM
CC(C)C(=O)Nc1ccc([N+](=O)[O-])c(C(F)(F)F)c1 [FLUTAMIDE]; > 30 µM
O=C1CCC(N2C(=O)c3ccccc3C2=O)C(=O)N1 (centres undefined) [THALIDOMIDE]; > 30 µM

Switching to the query record.
Note to self: AC50 recorded for C[C@H]1C[C@@H]2[C@H]([C@@H](O)C[C@@]3(C)[C@H]2CC[C@]3(O)C(=O)CO)[C@@]2(C)C=CC(=O)C=C12 was > 30 µM

* * *

Please consider the recorded AC50 for Glucocorticoid receptor (Homo sapiens, UniProt P04150) in what follows.

CN1C(=O)CC(=O)N(c2ccccc2)c2cc(Cl)ccc21; > 10 µM
CCCCCCC(C)(C)c1cc(O)c2c(c1)OC(C)(C)C1CCC(=O)CC21 (configuration not stated); > 30 µM
CN[C@@H]1[C@H](O)[C@H](NC)[C@H]2O[C@@]3(O)C(=O)C[C@@H](C)O[C@H]3O[C@@H]2[C@H]1O; > 10 µM
OCCN1CCN(CCCN2c3ccccc3C=Cc3ccccc32)CC1; > 30 µM
CC(C)(C(=O)c1cccnc1)c1cccnc1; > 10 µM

Dear reader, for each entry below, please note its AC50.
1. CCCCCCCCCCCC[N+](C)(C)CCOc1ccccc1
2. CCOc1cc(N)c([N+](=O)[O-])cc1C(=O)NC1CCN(CC2CC=CCC2)CC1 (configuration not stated) [CINITAPRIDE]
3. CC(=O)O[C@]1(C(C)=O)CC[C@H]2[C@@H]3C[C@H](C)C4=CC(=O)CC[C@]4(C)[C@H]3CC[C@@]21C [MEDROXYPROGESTERONE ACETATE]
4. O=C(C[S+]([O-])C(c1ccccc1)c1ccccc1)NO (configuration not stated)
5. Oc1ncnc2[nH]ncc12
6. CCOC(=O)[C@H](CCc1ccccc1)N[C@H]1CCCN2CCC[C@@H](C(=O)O)N2C1=O

1: 18 µM; 2: > 30 µM; 3: 0.015 µM; 4: > 30 µM; 5: > 30 µM; 6: > 30 µM

Dear reader, for each entry below, please note its AC50.
1. Cc1ccc(C(=O)c2cc(O)c(O)c([N+](=O)[O-])c2)cc1
2. CC(C(=O)O)c1ccc(N2CC=CC2)c(Cl)c1 (configuration not stated)
3. Cc1cc2c(OCC(CNC(C)(C)C)OC(=O)c3ccccc3)cccc2[nH]1 (configuration not stated)
4. CC(C)NCC(O)COc1ccc(COCCOC(C)C)cc1 (configuration not stated)
5. O=C(Nc1ccccc1)OCC(CN1CCCCC1)OC(=O)Nc1ccccc1 (configuration not stated)

1. > 30 µM
2. > 30 µM
3. > 30 µM
4. > 30 µM
5. > 30 µM

Dear reader, for each entry below, please note its AC50.
1. CN1C(=O)CC(c2ccccc2)C1=O (configuration not stated) [PHENSUXIMIDE]
2. NC1=NC(=O)C(c2ccccc2)O1 (configuration not stated)
3. O=C1CCC(N2C(=O)c3ccccc3C2=O)C(=O)N1 (configuration not stated) [THALIDOMIDE]

> 10 µM
> 30 µM
> 30 µM

* * *

study_system: Voltage-gated inwardly rectifying potassium channel KCNH2 (Homo sapiens); note: assay procedure not described here
Sequence (Q12809 whole entry): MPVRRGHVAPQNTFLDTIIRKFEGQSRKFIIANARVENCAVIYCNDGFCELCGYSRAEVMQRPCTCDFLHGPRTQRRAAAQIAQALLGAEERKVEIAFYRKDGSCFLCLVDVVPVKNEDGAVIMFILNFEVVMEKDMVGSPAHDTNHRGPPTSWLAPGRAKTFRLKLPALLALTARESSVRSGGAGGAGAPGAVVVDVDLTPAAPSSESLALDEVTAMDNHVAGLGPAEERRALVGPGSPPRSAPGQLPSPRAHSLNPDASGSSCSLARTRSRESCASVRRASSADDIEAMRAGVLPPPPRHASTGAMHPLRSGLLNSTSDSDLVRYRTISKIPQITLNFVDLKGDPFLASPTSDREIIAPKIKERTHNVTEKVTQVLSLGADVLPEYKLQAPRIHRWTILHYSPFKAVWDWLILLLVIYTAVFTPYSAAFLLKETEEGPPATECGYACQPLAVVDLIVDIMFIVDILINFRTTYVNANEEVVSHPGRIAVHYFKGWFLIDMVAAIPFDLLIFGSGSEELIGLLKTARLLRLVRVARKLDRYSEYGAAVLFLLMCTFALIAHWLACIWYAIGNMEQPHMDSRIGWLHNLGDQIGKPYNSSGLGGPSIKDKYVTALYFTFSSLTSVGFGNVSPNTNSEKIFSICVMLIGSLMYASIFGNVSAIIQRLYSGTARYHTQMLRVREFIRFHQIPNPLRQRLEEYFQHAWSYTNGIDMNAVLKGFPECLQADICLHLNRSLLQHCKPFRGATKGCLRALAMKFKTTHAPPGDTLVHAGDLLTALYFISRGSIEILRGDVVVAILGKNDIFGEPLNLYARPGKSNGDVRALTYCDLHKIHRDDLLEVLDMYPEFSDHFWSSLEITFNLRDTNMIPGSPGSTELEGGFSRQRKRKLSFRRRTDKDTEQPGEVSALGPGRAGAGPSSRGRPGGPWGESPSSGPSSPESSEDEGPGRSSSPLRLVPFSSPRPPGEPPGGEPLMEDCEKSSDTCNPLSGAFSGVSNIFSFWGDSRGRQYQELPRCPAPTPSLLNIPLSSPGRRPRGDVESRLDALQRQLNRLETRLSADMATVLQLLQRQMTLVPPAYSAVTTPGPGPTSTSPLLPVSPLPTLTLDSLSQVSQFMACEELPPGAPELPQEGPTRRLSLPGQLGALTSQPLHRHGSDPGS
Format: functional
test_parameters: read-out: AC50; note: assay procedure not described here
measured_parameter: AC50

Worked set:
COc1ccc2c(c1)c(CC(=O)OCC(=O)O)c(C)n2C(=O)c1ccc(Cl)cc1; > 30 µM
NS(=O)(=O)c1cc(Cl)c(Cl)c(S(N)(=O)=O)c1 [DICHLORPHENAMIDE]; > 30 µM
CCc1ccc(CCOc2ccc(CC3SC(=O)NC3=O)cc2)nc1 (stereo not drawn); > 30 µM
CC(C)C(=O)OCC(=O)[C@@]12O[C@H](C3CCCCC3)O[C@@H]1C[C@H]1[C@@H]3CCC4=CC(=O)C=C[C@]4(C)[C@H]3[C@@H](O)C[C@@]12C [CICLESONIDE]; > 30 µM
CCc1nn(CCCN2CCN(c3cccc(Cl)c3)CC2)c(=O)n1CCOc1ccccc1; 0.89 µM

Dear reader, for each entry below, please note its AC50.
1. CCCCCCCCOc1ccccc1C(=O)Nc1ccc(C(=O)OCC[N+](C)(CC)CC)cc1 [OTILONIUM BROMIDE]
2. CN(C)C(=O)OC1N=C(c2ccccc2)c2cc(Cl)ccc2N(C)C1=O (stereo not drawn)
3. CCOC(=O)[C@H](CCc1ccccc1)N[C@@H](C)C(=O)N1CCC[C@H]1C(=O)O

1. 0.66 µM
2. > 30 µM
3. > 30 µM

* * *

study_system: Muscarinic acetylcholine receptor M1 (Homo sapiens); note: assay procedure not described here
Sequence (P11229 whole entry): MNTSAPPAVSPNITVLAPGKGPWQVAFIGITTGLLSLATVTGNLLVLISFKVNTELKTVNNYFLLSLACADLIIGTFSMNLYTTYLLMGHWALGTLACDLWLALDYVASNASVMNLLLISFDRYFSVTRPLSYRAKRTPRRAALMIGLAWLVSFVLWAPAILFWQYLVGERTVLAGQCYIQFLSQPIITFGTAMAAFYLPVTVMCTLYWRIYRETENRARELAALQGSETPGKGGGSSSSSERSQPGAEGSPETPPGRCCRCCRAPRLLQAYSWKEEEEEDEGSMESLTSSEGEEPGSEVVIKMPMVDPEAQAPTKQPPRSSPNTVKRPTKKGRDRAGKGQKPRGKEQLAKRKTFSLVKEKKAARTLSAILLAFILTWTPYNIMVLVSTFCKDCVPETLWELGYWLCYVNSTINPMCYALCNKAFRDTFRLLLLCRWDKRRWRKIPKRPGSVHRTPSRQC
Assay type: functional
Please go through the items and note down their AC50.

Worked set:
C=C1C[C@@H]2[C@H](CC[C@]3(C)C(=O)CC[C@@H]23)[C@@]2(C)C=CC(=O)C=C12; > 10 µM
C=C1CC[C@@]2(O)[C@H]3Cc4ccc(O)c5c4[C@@]2(CCN3CC2CC2)[C@H]1O5; > 30 µM
Cc1c(Cl)cccc1Nc1ccccc1C(=O)O; > 30 µM
CC(C)NCC1CCc2cc(CO)c([N+](=O)[O-])cc2N1 (stereo not given); > 10 µM

Switching to the query record.
Note to self: AC50 recorded for CC(C)(N)Cc1ccc(Cl)cc1 was > 10 µM

* * *

Please consider the recorded AC50 for UniProt P31645 in what follows.
Sequence (P31645 whole entry): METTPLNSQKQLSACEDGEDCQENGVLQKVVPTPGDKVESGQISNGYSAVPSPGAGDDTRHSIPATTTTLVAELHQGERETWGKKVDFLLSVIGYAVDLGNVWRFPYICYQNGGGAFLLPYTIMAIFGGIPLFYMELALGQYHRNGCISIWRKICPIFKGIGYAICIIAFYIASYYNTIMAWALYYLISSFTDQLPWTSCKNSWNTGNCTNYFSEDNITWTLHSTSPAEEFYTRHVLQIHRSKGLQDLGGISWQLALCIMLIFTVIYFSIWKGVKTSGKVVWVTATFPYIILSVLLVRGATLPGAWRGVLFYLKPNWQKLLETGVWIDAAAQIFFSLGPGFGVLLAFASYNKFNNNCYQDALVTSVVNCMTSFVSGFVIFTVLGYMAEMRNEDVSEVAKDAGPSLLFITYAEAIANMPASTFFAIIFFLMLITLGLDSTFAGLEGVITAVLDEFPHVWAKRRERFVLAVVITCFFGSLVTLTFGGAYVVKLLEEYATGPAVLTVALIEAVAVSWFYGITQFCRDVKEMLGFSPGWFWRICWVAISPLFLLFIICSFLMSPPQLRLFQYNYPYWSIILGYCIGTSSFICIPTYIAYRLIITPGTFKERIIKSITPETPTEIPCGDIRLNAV

Nc1ccc(C(=O)O)cc1; > 30 µM
CN(CCOc1ccc(NS(C)(=O)=O)cc1)CCc1ccc(NS(C)(=O)=O)cc1 [DOFETILIDE]; > 30 µM

Dear reader, for each entry below, please note its AC50.
1. Cc1nc(-c2ccc(OCC(C)C)c(C#N)c2)sc1C(=O)O
2. O=C(c1ccc(F)c(F)c1Nc1ccc(I)cc1F)N1CC(O)([C@@H]2CCCCN2)C1
3. CCCC[N+]1(C)[C@@H]2C[C@@H](OC(=O)[C@H](CO)c3ccccc3)C[C@H]1[C@@H]1O[C@@H]12 (some centres undefined)
4. O=C(O)CCCN1CCC(O[C@@H](c2ccc(Cl)cc2)c2ccccn2)CC1
5. N/N=c1/cc2c(n[nH]1)CCN(C(=O)c1ccccc1)C2
6. CCO/N=C(\C(=O)N[C@@H]1C(=O)N2C(C(=O)[O-])=C(Sc3nc(-c4cc[n+](C)cc4)cs3)CS[C@H]12)c1nsc(N)n1
7. C(=N\NC1=NCCN1)/c1c2ccccc2c(/C=N/NC2=NCCN2)c2ccccc12

["> 30 µM", "7.82 µM", "> 30 µM", "> 30 µM", "> 30 µM", "> 30 µM", "2.25 µM"]

Dear reader, for each entry below, please note its AC50.
1. O=C(Cn1ccnc1[N+](=O)[O-])NCc1ccccc1
2. O=C1c2c(O)c(=O)ccn2N([C@@H]2c3ccccc3SCc3c2ccc(F)c3F)[C@@H]2COCCN12

["> 30 µM", "> 30 µM"]

Dear reader, for each entry below, please note its AC50.
1. CC[C@@H]1/C=C(\C)C[C@H](C)C[C@H](OC)[C@H]2O[C@@](O)(C(=O)C(=O)N3CCCC[C@H]3C(=O)O[C@H](/C(C)=C/[C@@H]3CC[C@H](Cl)[C@H](OC)C3)[C@H](C)[C@@H](O)CC1=O)[C@H](C)C[C@@H]2OC
2. CC(C)=CCC1C(=O)N(c2ccccc2)N(c2ccccc2)C1=O
3. COc1ccc(CCC(C)NCC(O)c2ccc(O)c([S+](C)[O-])c2)cc1 (centres undefined)
4. CO/N=C(\C(=O)N[C@@H]1C(=O)N2C(C(=O)OCOC(=O)C(C)(C)C)=C(C)CS[C@H]12)c1csc(N)n1
5. O=C(NC1CCN(CCCCC2(C(=O)NCC(F)(F)F)c3ccccc3-c3ccccc32)CC1)c1ccccc1-c1ccc(C(F)(F)F)cc1 [LOMITAPIDE]
6. CCO[C@@H](Cc1ccc(OCCn2c(C)ccc2-c2ccc(SC)cc2)cc1)C(=O)O
7. O=[N+]([O-])c1cncn1CCN1CCOCC1

> 30 µM
> 30 µM
0.866 µM
> 30 µM
> 30 µM
> 30 µM
> 30 µM

Dear reader, for each entry below, please note its AC50.
1. COc1cc2c(cc1OC)[C@H]1C[C@@H](OC(=O)[C@@H](N)C(C)C)[C@H](CC(C)C)CN1CC2
2. CC(C(=O)O)c1ccc2c(c1)Cc1cccnc1O2 (centres undefined)
3. CN1CCN(CC(=O)N2c3ccccc3C(=O)Nc3cccnc32)CC1 [PIRENZEPINE]
4. CC(=O)Oc1c(C)cc(OCC(O)CNC(C)C)c(C)c1C (centres undefined)
5. NS(=O)(=O)c1cc2c(cc1Cl)NC(CC1CCCC1)NS2(=O)=O (centres undefined) [CYCLOPENTHIAZIDE]
6. CC(C)Cc1ccc(C(C)C(=O)NO)cc1 (centres undefined)
7. CCCCN(CCCC)CCCOC(=O)c1ccc(N)cc1
8. CC(N/C(=N\C#N)Nc1ccncc1)C(C)(C)C (centres undefined) [PINACIDIL ANHYDROUS]

["> 30 µM", "> 10 µM", "> 30 µM", "> 30 µM", "> 30 µM", "> 30 µM", "> 30 µM", "> 30 µM"]
